experiment: Cytotoxicity against human breast cancer cells assessed as cell growth after 48 hrs by SRB assay; assay type: functional; conditions: Cancer cell lines
This listing pairs compounds with measured GI50.

querySmiles	measurementUnit	GI50
COc1ccc(C(=O)c2nc3ccccc3n2CC(=O)c2ccc(Cl)cc2)cc1	µM	3.47
COc1ccc(C(=O)Cn2c(C(=O)c3ccc(OC)cc3)nc3ccccc32)cc1	µM	2.4
COc1ccc(C(=O)Cn2c(C(=O)c3ccccc3)nc3ccccc32)cc1	µM	2.24
COc1ccc(C(=O)Cn2c(C(=O)c3ccc(Cl)cc3)nc3ccccc32)cc1	µM	6.17
N[C@@H](Cc1ccc(N(CCCl)CCCl)cc1)C(=O)O	µM	16.2
O=C(Cn1c(C(=O)c2ccccc2)nc2ccccc21)c1ccc(F)cc1	µM	3.98
O=C(Cn1c(C(=O)c2ccccc2)nc2ccccc21)c1ccccc1	µM	9.33
